Would you mind telling me the reported microsomal CLint at 0.1 uM of each entry?
assay protocol: Microsomal stability assay, mouse liver microsomes
assay context: male, CD-1, mouse, liver microsomes, pH 7.4, Microsomal Stability Mouse Clint, Example 11

(Q) GET /values?readout=microsomal CLint at 0.1 uM&item= "CS(=O)(=O)Nc1cnc2cc(N3CCOCC3)nc(O[C@H]3CC[C@@H](NC(=O)c4ncccn4)CC3)c2c1"
(A) < 116 µL/min/mg

(Q) Which microsomal CLint at 0.1 uM reading was recorded for the compound "CS(=O)(=O)Nc1cnc2cc(N3CCOCC3)nc(O[C@H]3CC[C@@H](Nc4ncc(C(F)(F)F)cn4)CC3)c2c1" ?
(A) < 116 µL/min/mg

(Q) Reported microsomal CLint at 0.1 uM, compound CC(c1cnc([N+](=O)[O-])n1C)N(c1cnc2cc(N3CCOCC3)nc(OC3CCC(Nc4ncc(C#N)cn4)CC3)c2c1)S(C)(=O)=O (stereo not drawn) : ____
(A) > 116 µL/min/mg
